# Test system: Klebsiella aerogenes DSM 30053
# protocol text: fold change of Cadaverine concentration vs plate DMSO controls (fold change (ratio)); higher = more amine produced, active = hit call of the paper (significant change in both replicates, either direction)
# conditions: incubation time: 27 h, anaerobic, 37 °C
Where a name gives a salt, the structure may show the parent alone.
Can you tell me fold change of Cadaverine concentration for the items I'm about to list?
One number for each entry.

Known results for molecules:
molecule	measured target	fold change of Cadaverine concentration
Cc1cc2c(cc1S(N)(=O)=O)S(=O)(=O)CCC2 [Meticrane] (20 µM)	Klebsiella aerogenes DSM 30053	0.986
Nc1ccc(S(=O)(=O)Nc2ccccn2)cc1 [Sulfapyridine] (20 µM)	Klebsiella aerogenes DSM 30053	0.994
CN1CCCC(CC2c3ccccc3Sc3ccccc32)C1 (centres undefined) [Metixene hydrochloride] (20 µM)	Klebsiella aerogenes DSM 30053	1.01

Below is a list of molecules. For each, state its recorded fold change of Cadaverine concentration.
1. CN1CCN(c2c(F)cc3c(=O)c(C(=O)O)cn4c3c2SCC4)CC1 [Rufloxacin] (20 µM)
2. CC(C(=O)O)c1ccc(C(=O)c2cccs2)cc1 (centres undefined) [Suprofen] (20 µM)
3. CN1CCN(CC(=O)N2c3ccccc3C(=O)Nc3cccnc32)CC1 [Pirenzepine dihydrochloride] (20 µM)
4. COC(=O)C1=C(C#N)NC(C)=C(C(=O)OC(C)C)C1c1cccc([N+](=O)[O-])c1 (centres undefined) [Nilvadipine] (20 µM)
5. O=C(Cn1ccnc1[N+](=O)[O-])NCCO [Etanidazole] (20 µM)
6. Nc1ccccc1S(N)(=O)=O [o-Sulfanilamide] (20 µM)

Result:
1: 0.997; 2: 0.986; 3: 1.04; 4: 1.02; 5: 1.11; 6: 1

* * *

Can you tell me growth for the items I'm about to list?
# Test system: Escherichia coli IAI1
# protocol text: growth (OD595) fold change vs plate DMSO controls (fold change (ratio)); higher = more growth
# conditions: incubation time: 27 h, anaerobic, 37 °C
Counter-ions that a name gives are not always drawn.
Numbers only.

Known results for compounds:
compound	measured target	result value
CN(CCCCCCCCCCN(C)C(=O)Oc1cccc([N+](C)(C)C)c1)C(=O)Oc1cccc([N+](C)(C)C)c1 [Demecarium bromide] (20 µM)	Escherichia coli IAI1	0.974
CO/N=C(\C(=O)N[C@@H]1C(=O)N2C(C(=O)OCOC(=O)C(C)(C)C)=C(/C=C\c3scnc3C)CS[C@H]12)c1csc(N)n1 [Cefditoren Pivoxil] (20 µM)	Escherichia coli IAI1	1.11
COCC(=O)Nc1c(I)c(C(=O)NCC(O)CO)c(I)c(C(=O)N(C)CC(O)CO)c1I (centres undefined) [Iopromide] (20 µM)	Escherichia coli IAI1	1.02

Below is a list of compounds. For each, state its recorded growth.
1. O=C(O[C@@H]1C[C@@H]2C[C@H]3C[C@H](C1)N2CC3=O)c1c[nH]c2ccccc12 [Dolasetron mesilate] (20 µM)
2. Clc1ccc(Cn2c(CN3CCCC3)nc3ccccc32)cc1 [Clemizole hydrochloride] (20 µM)

Result:
[0.994, 1.01]

* * *

# System: Klebsiella aerogenes DSM 30053
# protocol text: fold change of Cadaverine concentration vs plate DMSO controls (fold change (ratio)); higher = more amine produced, active = hit call of the paper (significant change in both replicates, either direction)
# conditions: incubation time: 27 h, anaerobic, 37 °C
Classification field: yes = fold change of Cadaverine concentration at or over 1; no = fold change of Cadaverine concentration under 1.

Look over these answered cases.
compound	class
C=C1CC[C@H](O)C/C1=C/C=C1\CCC[C@]2(C)[C@@H]([C@H](C)CCCC(C)C)CC[C@@H]12 [Cholecalciferol] (20 µM)	yes
C/C(=C\C(=O)OCCCCCCCCC(=O)O)C[C@@H]1OC[C@H](C[C@@H]2O[C@H]2[C@@H](C)[C@H](C)O)[C@@H](O)[C@H]1O [Mupirocin] (20 µM)	no

API: the following record is the query input.
Problem: Evaluate Nc1nc(=S)c2ncn([C@@H]3O[C@H](CO)[C@@H](O)[C@H]3O)c2[nH]1 [Thioguanosine] (20 µM) : fold change of Cadaverine concentration at minimum 1?
Result: yes

Attribution: the supplement of paper PMC12494721
